target: STAT6 (Homo sapiens, UniProt P42226); assay: Fluorescence polarization competition with FAM-labelled IL-4Rα Tyr631 phosphopeptide for binding to STAT6; conditions: other phosphate-containing STAT6 inhibitors; competition with FAM-Ala-pTyr-Lys-Pro-Phe-Gln-Asp-Leu-Ile-NH2
Sequence (P42226 whole entry, species assumed): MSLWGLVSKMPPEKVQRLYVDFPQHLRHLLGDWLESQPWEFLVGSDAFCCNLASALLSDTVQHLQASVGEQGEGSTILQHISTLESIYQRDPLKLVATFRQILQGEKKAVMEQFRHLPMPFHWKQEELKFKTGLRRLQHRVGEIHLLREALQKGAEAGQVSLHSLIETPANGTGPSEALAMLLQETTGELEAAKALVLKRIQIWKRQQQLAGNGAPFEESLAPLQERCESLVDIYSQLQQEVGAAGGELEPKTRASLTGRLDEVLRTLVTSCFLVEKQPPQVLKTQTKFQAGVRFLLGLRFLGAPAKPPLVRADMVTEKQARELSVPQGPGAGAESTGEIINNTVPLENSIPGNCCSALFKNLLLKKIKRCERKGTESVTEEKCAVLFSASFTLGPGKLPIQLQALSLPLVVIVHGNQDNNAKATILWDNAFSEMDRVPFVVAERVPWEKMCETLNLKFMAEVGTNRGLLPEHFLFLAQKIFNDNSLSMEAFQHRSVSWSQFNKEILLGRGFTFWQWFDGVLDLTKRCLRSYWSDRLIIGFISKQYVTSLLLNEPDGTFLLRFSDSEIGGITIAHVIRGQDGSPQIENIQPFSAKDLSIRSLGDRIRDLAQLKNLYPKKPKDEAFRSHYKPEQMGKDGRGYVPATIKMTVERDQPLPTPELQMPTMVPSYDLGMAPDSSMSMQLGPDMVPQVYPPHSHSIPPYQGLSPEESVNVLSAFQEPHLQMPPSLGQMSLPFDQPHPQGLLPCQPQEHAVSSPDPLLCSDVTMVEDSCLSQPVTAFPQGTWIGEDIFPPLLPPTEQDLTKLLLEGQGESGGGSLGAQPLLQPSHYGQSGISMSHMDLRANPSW
OBSERVATION_TYPE: pIC50
Answers are plain numbers, as −log10 of the molar value.

Consider the worked cases shown below.
C/C(=C\C(=O)N[C@H](C(=O)N1CCC[C@H]1C(=O)N(C)c1ccccc1)C(C)(C)C)c1ccc(OP(=O)(O)O)cc1 [PM-301H]    6.93
C/C(=C\C(=O)N[C@H](C(=O)N1CCC[C@H]1C(=O)N(c1ccccc1)c1ccc(I)cc1)C(C)(C)C)c1ccc(OP(=O)(O)O)cc1 [PM-286H]    7.28

Proceeding to the next compound to report its pIC50.
Challenge: Returns the measured pIC50 for the input compound. Input: C/C(=C\C(=O)N[C@H](C(=O)N1CCC[C@H]1C(=O)Nc1ccccc1)C(C)(C)C)c1ccc(OP(=O)(O)O)cc1 [PM-302H-A]
Response given: 6.57
